# tested-system: Sigma non-opioid intracellular receptor 1 (Rattus norvegicus, UniProt Q9R0C9)
# Sequence (Q9R0C9 whole entry): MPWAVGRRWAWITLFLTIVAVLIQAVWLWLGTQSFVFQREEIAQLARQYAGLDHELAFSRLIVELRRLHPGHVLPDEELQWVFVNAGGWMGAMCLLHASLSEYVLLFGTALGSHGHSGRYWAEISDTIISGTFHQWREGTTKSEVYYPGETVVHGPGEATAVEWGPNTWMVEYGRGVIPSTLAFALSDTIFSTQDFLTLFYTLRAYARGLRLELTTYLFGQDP
# assay-method-text: Inhibition of [3H]NANM binding to sigma receptor obtained from tissue homogenate preparation of fresh whole rat brain minus cerebellum
recorded-endpoint: IC50 (nM)
Entry rule: numbers only, all in nM.

Consider `c1ccc2c(c1)C1CCC2(N2CCCCC2)CC1` . Its measured IC50 is 319

Consider `O=C(OCCN1CCOCC1)C1(c2ccccc2)CCCCC1` . Its measured IC50 is 44

Consider c1ccc2c(c1)C1CCCCC21N1CCCCC1 (centres undefined) . Its measured IC50 is 330

Consider c1ccc2c(c1)C1CCC2(N2CCCCC2)C1 (centres undefined) . Its measured IC50 is 365

====

# assay-method-text: Inhibition of [3H]-TCP binding to PCP receptor obtained from tissue homogenate preparation of fresh whole rat brain minus cerebellum
recorded-endpoint: IC50 (nM)
Entry rule: numbers only, all in nM.

Consider c1ccc(C2(N3CCCCC3)CCCCC2)cc1 [PHENCYCLIDINE] . Its measured IC50 is 91
